Every entry's value here was drawn from paper PMC8304783.

C. albicans SC5314: recorded MIC90 for assorted molecules
Write down the numeric answer in µM and omit the unit.

Given the molecule "CCCCCCCCCn1cc[n+](CO[C@@H]2C[C@H](C)CC[C@H]2C(C)C)c1" , what is its reported MIC90?
12.5

# repeat for C[C@@H]1[C@H](O)[C@@H](C)/C=C/C=C/C=C/C=C/C=C/C=C/C=C/[C@H](O[C@@H]2O[C@H](C)[C@@H](O)[C@H](N)[C@@H]2O)C[C@@H]2O[C@](O)(C[C@@H](O)C[C@@H](O)[C@H](O)CC[C@@H](O)C[C@@H](O)CC(=O)O[C@H]1C)C[C@H](O)[C@H]2C(=O)O [AMB, amphotericin B, reference compound]
0.25

Also, "CCCCCCCCCCn1cc[n+](CO[C@@H]2C[C@H](C)CC[C@H]2C(C)C)c1" please.
25

Subsequent entry: "CCCCCCCCCOCn1cc[n+](CO[C@@H]2C[C@H](C)CC[C@H]2C(C)C)c1"
12.5
